Assign vapor or sublimation pressure to each entry below.
conditions: 298.15 K; Liquid
Numbers after ± are expanded uncertainties.
In your response, put the unit directly after the numeric value.

Q: Tell me measured vapor or sublimation pressure for `ClCCCCl` please.
A: 2.75 ± 0.16 kPa

Q: Tell me measured vapor or sublimation pressure for `O=C1CCCC1` please.
A: 1.71 ± 0.32 kPa

Q: Tell me measured vapor or sublimation pressure for `ClCCCCCl` please.
A: 0.99 ± 0.16 kPa

Q: Tell me measured vapor or sublimation pressure for `CCCCCl` please.
A: 13.7 ± 0.4 kPa

* * *

conditions: 318.15 K; Liquid
Numbers after ± are expanded uncertainties.
Assign vapor or sublimation pressure to each entry below.
In your response, put the unit directly after the numeric value.

Q: Tell me measured vapor or sublimation pressure for ClCCCCl [1,3-dichloropropane] please.
A: 6.87 ± 0.18 kPa

Q: Tell me measured vapor or sublimation pressure for ClCCCCCl [1,4-dichlorobutane] please.
A: 2.13 ± 0.16 kPa

Q: Tell me measured vapor or sublimation pressure for O=C1CCCC1 [cyclopentanone] please.
A: 4.4 ± 0.34 kPa

Q: Tell me measured vapor or sublimation pressure for CCCCCl [1-chlorobutane] please.
A: 31.86 ± 0.51 kPa
